system: Bacillus subtilis (ATCC43639); assay: Microtitre plate assay, IC90 determination, BSU 43639; assay type: cell-based; conditions: 90% inhibitory concentration for bacterial growth, 37° C., 24 hours, resazurin fluorescence
measure: IC90 (μg/ml) BSU 43639 (µg/mL)

compound	observed.measurement
COc1nc2ccc(-c3ccccc3)cc2cc1C(c1ccccc1)C(O)(CCN(C)C)c1ccccc1 (stereo not drawn) [Compound 27]	10.0
COc1nc2ccc(Br)cc2cc1C(c1ccccc1)C(O)(CCN1CCN(C)CC1)c1ccccc1 (racemic) [Compound 51]	28.1
COc1nc2ccc(Br)cc2cc1C(c1ccccc1)C(O)(CCN(C)C)c1cccc2ccccc12 (stereo not drawn) [Compound 14]	11.1
